EXPERIMENT SUMMARY: Yield of reduced metal compounds under X-ray irradiation
Format: physicochemical
APPLIED CONDITIONS: 100 μM in deoxygenated ultrapure water, X-rays 0-1000 Gy, 4 Gy/min
PARAMETER MEASURED: Yield (radiation yield = disappeared concentration of reactant/radiation dose) (nM/Gy)
# unit: nM/Gy | format: bare number

Here is how some compounds turned out for Yield (radiation yield = disappeared concentration of reactant/radiation dose).
COMPOUND	MEASURED
[Cl][Fe]([Cl])[Cl] [Compound 5, ferric chloride]	578
O=[N+]([O-])[O-].[Ag+] [Compound 14, silver nitrate]	576
[NH2][Pt]([NH2])([Cl])([Cl])([O]C(=O)CCCC[P+](c1ccccc1)(c1ccccc1)c1ccccc1)[O]C(=O)CCCC[P+](c1ccccc1)(c1ccccc1)c1ccccc1	427

Ask: Any idea what its Yield (radiation yield = disappeared concentration of reactant/radiation dose) is? The compound is C1=Cc2cc3ccc(cc4nc(cc5ccc(cc1n2)[nH]5)C=C4)[nH]3.[Fe]
Result: 598

Ask: Any idea what its Yield (radiation yield = disappeared concentration of reactant/radiation dose) is? The compound is [K+].[K+].[O]=[Cr](=[O])([O-])[O][Cr](=[O])(=[O])[O-] [Compound 9, potassium dichromate]
Result: 87

Ask: Any idea what its Yield (radiation yield = disappeared concentration of reactant/radiation dose) is? The compound is [Cl][Ni][Cl] [Compound 10, nickel chloride]
Result: 347
